Task for the reader: assign each of the following binders its reported interaction score.
target: GCN2_T; experiment: two-hybrid library CCmax; details: mean of both orientations;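 further: natural log of median RNA to DNA barcode read ratio; higher means stronger binding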
Give bare numbers.

Examples with their reported interaction score follow.
[
  {
    "binder": "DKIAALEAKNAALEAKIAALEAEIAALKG [4H2466-AA]",
    "recorded endpoint": "interaction score",
    "readout number": -1
  },
  {
    "binder": "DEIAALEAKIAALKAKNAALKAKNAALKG [4H384-AA]",
    "recorded endpoint": "interaction score",
    "readout number": -1.61
  },
  {
    "binder": "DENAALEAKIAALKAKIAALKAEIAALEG [4H1385-AA]",
    "recorded endpoint": "interaction score",
    "readout number": -1.2
  }
]

// batch mode: one interaction score value per listed entry
1. DEIAALKAKIAALKAKNAALKAKNAALEG [4H895-AA]
2. DEIAALEAKIAALKAENAALKAENAALEG [4H347-AA]

Reply:
1: -1.25; 2: -2.14

List interaction score for every entry below, keeping the order given.
1. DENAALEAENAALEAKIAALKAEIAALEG [4H1193-AA]
2. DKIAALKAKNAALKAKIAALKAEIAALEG [4H3049-AA]

Reply:
-1.62
-0.776

Cited source: paper PMC10397247
